Tested on: Human immunodeficiency virus 1
methodNotes: Binding affinity to HLT-tagged HIV-1 Rev measured after overnight incubation by chemiluminescence analysis relative to IN 174-188
Parameters: concentration or dose not given beside the values
Square brackets hold non-standard residues; d marks the D form. Peptide text beside a SMILES is read from it. NMeK = CN[C@@H](CCCCN)C(=O)O

>  <compound>
CC[C@H](C)[C@H](NC(=O)[C@H](Cc1ccccc1)NC(=O)[C@@H](NC(=O)[C@H](C)NC(=O)[C@H](CCSC)NC(=O)[C@H](CCC(N)=O)NC(=O)[C@@H](NC(=O)[C@H](C)NC(=O)[C@@H](N)[C@@H](C)O)C(C)C)C(C)C)C(=O)O (H-TAVQMAVFI-OH)

>  <Activity, %>
0

$$$$
>  <compound>
CC[C@H](C)[C@H](NC(=O)[C@H](Cc1ccccc1)NC(=O)[C@@H](NC(=O)[C@H](C)NC(=O)[C@H](CCSC)NC(=O)[C@H](CCC(N)=O)NC(=O)[C@@H](NC(=O)[C@H](C)NC(=O)[C@@H](N)[C@@H](C)O)C(C)C)C(C)C)C(=O)N[C@H](Cc1cnc[nH]1)C(=O)N[C@@H](CC(N)=O)C(=O)N[C@@H](Cc1ccccc1)C(=O)N[C@@H](CCCCN)C(=O)N[C@@H](CCCNC(=N)N)C(=O)N[C@@H](CCCCN)C(=O)O

>  <Activity, %>
105

$$$$
>  <compound>
CC[C@H](C)[C@H](NC(=O)[C@H](Cc1ccccc1)NC(=O)[C@@H](NC(=O)[C@H](C)NC(=O)[C@H](CCSC)NC(=O)[C@H](CCC(N)=O)NC(=O)[C@@H](NC(=O)[C@H](C)NC(=O)[C@@H](N)[C@@H](C)O)C(C)C)C(C)C)C(=O)N[C@@H](Cc1cnc[nH]1)C(=O)N[C@@H](CC(N)=O)C(=O)N[C@@H](Cc1ccccc1)C(=O)N[C@@H](CCCCN)C(=O)N[C@H](CCCNC(=N)N)C(=O)N[C@@H](CCCCN)C(=O)O

>  <Activity, %>
169

$$$$
>  <compound>
CC[C@H](C)[C@H](NC(=O)[C@H](Cc1ccccc1)NC(=O)[C@H](C)NC(=O)[C@H](C)NC(=O)[C@H](CCSC)NC(=O)[C@H](CCC(N)=O)NC(=O)[C@@H](NC(=O)[C@H](C)NC(=O)[C@@H](N)[C@@H](C)O)C(C)C)C(=O)N[C@@H](Cc1cnc[nH]1)C(=O)N[C@@H](CC(N)=O)C(=O)N[C@@H](Cc1ccccc1)C(=O)N[C@@H](CCCCN)C(=O)N[C@@H](CCCNC(=N)N)C(=O)N[C@@H](CCCCN)C(=O)O (H-TAVQMAAFIHNFKRK-OH)

>  <Activity, %>
222

$$$$
>  <compound>
CC[C@H](C)[C@H](NC(=O)[C@H](Cc1ccccc1)NC(=O)[C@@H](NC(=O)[C@H](C)NC(=O)[C@H](CCSC)NC(=O)[C@H](CCC(N)=O)NC(=O)[C@@H](NC(=O)[C@H](C)NC(=O)[C@@H](N)[C@@H](C)O)C(C)C)C(C)C)C(=O)N[C@@H](Cc1cnc[nH]1)C(=O)N[C@@H](CC(N)=O)C(=O)N[C@@H](Cc1ccccc1)C(=O)N[C@@H](CCCCN)C(=O)N[C@@H](CCCNC(=N)N)C(=O)O (H-TAVQMAVFIHNFKR-OH)

>  <Activity, %>
114

$$$$
>  <compound>
CC[C@H](C)[C@H](NC(=O)[C@H](Cc1ccccc1)NC(=O)[C@@H](NC(=O)[C@H](C)NC(=O)[C@H](CCSC)NC(=O)[C@H](CCC(N)=O)NC(=O)[C@@H](NC(=O)[C@H](C)NC(=O)[C@@H](N)[C@@H](C)O)C(C)C)C(C)C)C(=O)N[C@@H](Cc1cnc[nH]1)C(=O)N[C@@H](CC(N)=O)C(=O)N[C@@H](Cc1ccccc1)C(=O)N[C@H](CCCCN)C(=O)N[C@@H](CCCNC(=N)N)C(=O)N[C@@H](CCCCN)C(=O)O

>  <Activity, %>
120

$$$$
>  <compound>
CC[C@H](C)[C@H](NC(=O)[C@H](Cc1ccccc1)NC(=O)[C@@H](NC(=O)[C@H](C)NC(=O)[C@H](CCSC)NC(=O)[C@H](CCC(N)=O)NC(=O)[C@@H](NC(=O)[C@H](C)NC(=O)[C@@H](N)[C@@H](C)O)C(C)C)C(C)C)C(=O)N[C@@H](Cc1cnc[nH]1)C(=O)N[C@@H](CC(N)=O)C(=O)N[C@@H](Cc1ccccc1)C(=O)N[C@@H](CCCCN)C(=O)N[C@@H](CCCNC(=N)N)C(=O)N(C)[C@@H](CCCCN)C(=O)O (H-TAVQMAVFIHNFKR[NMeK]-OH)

>  <Activity, %>
201

$$$$
>  <compound>
CC[C@H](C)[C@H](NC(=O)[C@H](Cc1ccccc1)NC(=O)[C@@H](NC(=O)[C@H](C)NC(=O)[C@H](CCSC)NC(=O)[C@H](CCC(N)=O)NC(=O)[C@@H](NC(=O)[C@H](C)NC(=O)[C@@H](N)[C@@H](C)O)C(C)C)C(C)C)C(=O)N[C@@H](Cc1cnc[nH]1)C(=O)N[C@@H](CC(N)=O)C(=O)N[C@@H](Cc1ccccc1)C(=O)N(C)[C@@H](CCCCN)C(=O)N[C@@H](CCCNC(=N)N)C(=O)N[C@@H](CCCCN)C(=O)O (H-TAVQMAVFIHNF[NMeK]RK-OH)

>  <Activity, %>
70

$$$$
>  <compound>
CC[C@H](C)[C@H](NC(=O)[C@H](Cc1ccccc1)NC(=O)[C@@H](NC(=O)[C@H](C)NC(=O)[C@H](CCSC)NC(=O)[C@H](CCC(N)=O)NC(=O)[C@@H](NC(=O)[C@H](C)NC(=O)[C@@H](N)[C@@H](C)O)C(C)C)C(C)C)C(=O)N[C@@H](Cc1cnc[nH]1)C(=O)O (H-TAVQMAVFIH-OH)

>  <Activity, %>
0

$$$$
>  <compound>
CC[C@H](C)[C@H](NC(=O)[C@@H](Cc1ccccc1)NC(=O)[C@@H](NC(=O)[C@H](C)NC(=O)[C@H](CCSC)NC(=O)[C@H](CCC(N)=O)NC(=O)[C@@H](NC(=O)[C@H](C)NC(=O)[C@@H](N)[C@@H](C)O)C(C)C)C(C)C)C(=O)N[C@@H](Cc1cnc[nH]1)C(=O)N[C@@H](CC(N)=O)C(=O)N[C@@H](Cc1ccccc1)C(=O)N[C@@H](CCCCN)C(=O)N[C@@H](CCCNC(=N)N)C(=O)N[C@@H](CCCCN)C(=O)O

>  <Activity, %>
231

$$$$

---

Recorded Activity by entry
assayTarget: Human immunodeficiency virus type 1 integrase (Human immunodeficiency virus 1) (UniProt Q7ZJM1)
Sequence (Q7ZJM1 as listed by the source): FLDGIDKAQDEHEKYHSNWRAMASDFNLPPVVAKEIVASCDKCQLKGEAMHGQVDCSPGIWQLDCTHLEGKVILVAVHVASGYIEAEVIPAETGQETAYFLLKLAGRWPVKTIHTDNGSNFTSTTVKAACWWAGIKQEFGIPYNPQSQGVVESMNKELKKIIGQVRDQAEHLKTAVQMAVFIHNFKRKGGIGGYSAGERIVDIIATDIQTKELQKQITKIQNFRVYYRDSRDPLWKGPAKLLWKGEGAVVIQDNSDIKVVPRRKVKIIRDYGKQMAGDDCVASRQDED
methodNotes: Binding affinity to HIV-1 integrase measured after overnight incubation by chemiluminescence analysis relative to IN 118-128
Set-up: concentration or dose not given beside the values
Square brackets hold non-standard residues; d marks the D form. Peptide text beside a SMILES is read from it. NMeT = CN[C@H](C(=O)O)[C@@H](C)O
measuredEndpoint: Activity (%)

>  <compound>
CC(C)[C@H](NC(=O)[C@@H](NC(=O)[C@H]([C@@H](C)O)N(C)C(=O)[C@H](CO)NC(=O)[C@@H](NC(=O)[C@H](Cc1ccccc1)NC(=O)[C@H](CC(N)=O)NC(=O)[C@H](CO)NC(=O)CN)[C@@H](C)O)[C@@H](C)O)C(=O)N[C@@H](CCCCN)C(=O)N[C@@H](C)C(=O)O (H-GSNFTS[NMeT]TVKA-OH)

>  <measValue>
249

$$$$
>  <compound>
CC(C)[C@H](NC(=O)[C@@H](NC(=O)[C@@H](NC(=O)[C@H](CO)NC(=O)[C@@H](NC(=O)[C@H](Cc1ccccc1)NC(=O)[C@H](CC(N)=O)NC(=O)[C@@H](CO)NC(=O)CN)[C@@H](C)O)[C@@H](C)O)[C@@H](C)O)C(=O)N[C@@H](CCCCN)C(=O)N[C@@H](C)C(=O)O

>  <measValue>
346

$$$$

---

Test system: Human immunodeficiency virus 1
methodNotes: Binding affinity to HLT-tagged HIV-1 Rev measured after overnight incubation by chemiluminescence analysis relative to IN 174-188
Parameters: concentration or dose not given beside the values
Peptide text beside a SMILES is read from it.

>  <compound>
CSCC[C@H](NC(=O)[C@H](CCC(N)=O)NC(=O)[C@@H](NC(=O)[C@H](C)NC(=O)[C@@H](N)[C@@H](C)O)C(C)C)C(=O)N[C@@H](C)C(=O)N[C@H](C(=O)N[C@@H](Cc1ccccc1)C(=O)N[C@@H](C)C(=O)N[C@@H](Cc1cnc[nH]1)C(=O)N[C@@H](CC(N)=O)C(=O)N[C@@H](Cc1ccccc1)C(=O)N[C@@H](CCCCN)C(=O)N[C@@H](CCCNC(=N)N)C(=O)N[C@@H](CCCCN)C(=O)O)C(C)C (H-TAVQMAVFAHNFKRK-OH)

>  <assayTarget>
Human immunodeficiency virus 1

>  <Activity [%]>
254

$$$$
>  <compound>
CC[C@H](C)[C@H](NC(=O)[C@H](Cc1ccccc1)NC(=O)[C@@H](NC(=O)[C@H](C)NC(=O)[C@H](CCSC)NC(=O)[C@H](CCC(N)=O)NC(=O)[C@@H](NC(=O)[C@H](C)NC(=O)[C@@H](N)[C@@H](C)O)C(C)C)C(C)C)C(=O)N[C@@H](Cc1cnc[nH]1)C(=O)N[C@@H](CC(N)=O)C(=O)N[C@@H](Cc1ccccc1)C(=O)N[C@@H](CCCCN)C(=O)N[C@@H](C)C(=O)N[C@@H](CCCCN)C(=O)O (H-TAVQMAVFIHNFKAK-OH)

>  <assayTarget>
Human immunodeficiency virus 1

>  <Activity [%]>
234

$$$$
>  <compound>
CC[C@H](C)[C@H](NC(=O)[C@H](Cc1ccccc1)NC(=O)[C@@H](NC(=O)[C@H](C)NC(=O)[C@H](CCSC)NC(=O)[C@H](CCC(N)=O)NC(=O)[C@@H](NC(=O)[C@H](C)NC(=O)[C@@H](N)[C@@H](C)O)C(C)C)C(C)C)C(=O)N[C@@H](Cc1cnc[nH]1)C(=O)N[C@@H](CC(N)=O)C(=O)N[C@@H](Cc1ccccc1)C(=O)N[C@@H](C)C(=O)N[C@@H](CCCNC(=N)N)C(=O)N[C@@H](CCCCN)C(=O)O (H-TAVQMAVFIHNFARK-OH)

>  <assayTarget>
Human immunodeficiency virus 1

>  <Activity [%]>
176

$$$$
